experimental_target: Neuronal acetylcholine receptor subunit alpha-7 (Homo sapiens, UniProt P36544)
Sequence (P36544 whole entry): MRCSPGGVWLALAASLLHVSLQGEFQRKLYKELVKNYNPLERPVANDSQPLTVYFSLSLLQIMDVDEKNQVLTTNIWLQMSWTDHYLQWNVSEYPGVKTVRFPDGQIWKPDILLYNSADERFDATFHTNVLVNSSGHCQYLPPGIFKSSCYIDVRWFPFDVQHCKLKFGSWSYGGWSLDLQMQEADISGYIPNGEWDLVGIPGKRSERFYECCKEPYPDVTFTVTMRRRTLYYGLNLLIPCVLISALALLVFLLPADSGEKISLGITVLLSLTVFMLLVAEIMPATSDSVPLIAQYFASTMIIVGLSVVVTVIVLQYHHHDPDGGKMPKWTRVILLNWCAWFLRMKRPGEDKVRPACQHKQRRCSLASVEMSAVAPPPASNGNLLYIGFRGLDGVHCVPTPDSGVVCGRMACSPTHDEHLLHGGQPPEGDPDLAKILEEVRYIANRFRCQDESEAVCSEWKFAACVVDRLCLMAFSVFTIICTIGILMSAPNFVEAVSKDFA
assay_info: Displacement of [3H]Epibatidine from human alpha7 nACHR expressed in CHO cell membranes after 2 hrs by liquid scintillation counting analysis
pKi: −log10 of the molar value.

molecule	pKi
COC(=O)[C@H]1C[C@H]2CNC[C@H]2C1 (mixture of isomers)	4.89
C[C@H]1C[C@H]1C(=O)N1CC2CNCC(C2)C1 (mixture of isomers)	7.00
O=C(c1ccco1)[C@H]1C[C@@H]2CNC[C@@H](C2)C1	4.82
O=C([C@H]1C[C@H]1F)N1CC2CNCC2C1 (mixture of isomers)	5.85
C[C@@H]1C[C@H]1C(=O)N1CC2CNCC(C2)C1 (mixture of isomers)	7.52
CC(=O)N1CC2CNCC(C2)C1 (mixture of isomers)	5.48
O=C([C@@H]1C[C@@H]1F)N1CC2CNCC2C1 (mixture of isomers)	5.16
O=C(C1CC1)[C@H]1C[C@H]2CNC[C@H]2C1 (mixture of isomers)	6.85
O=C(c1ccco1)[C@H]1C[C@H]2CNC[C@H]2C1 (mixture of isomers)	5.47
O=C([C@H]1C[C@@H]1F)N1CC2CNCC2C1 (mixture of isomers)	5.57

* * *

experimental_target: Neuronal acetylcholine receptor subunit alpha-7 (Homo sapiens, UniProt P36544)
assay_info: Displacement of [3H]Epibatidine from human alpha7 nACHR expressed in CHO cell membranes after 2 hrs by liquid scintillation counting analysis
Items are presented alongside their recorded log10(Ki).
result_type: log10(Ki) (log10 of the value in nM)

compound	log10(Ki)
C[C@H]1C[C@@H]1C(=O)N1CC2CNCC(C2)C1 (mixture of isomers)	2.48
CNC(=O)[C@H]1C[C@H]2CNC[C@H]2C1 (mixture of isomers)	4.43
CCC(=O)N1CC2CNCC2C1 (mixture of isomers)	3.60
C[C@@H]1C[C@@H]1C(=O)N1CC2CNCC(C2)C1 (mixture of isomers)	0.70
O=C([C@H]1C[C@H]1F)N1CC2CNCC(C2)C1 (mixture of isomers)	2.00

* * *

experimental_target: Neuronal acetylcholine receptor; alpha3/beta4 (Homo sapiens, UniProt P30926+P32297)
Sequence (P30926 whole entry): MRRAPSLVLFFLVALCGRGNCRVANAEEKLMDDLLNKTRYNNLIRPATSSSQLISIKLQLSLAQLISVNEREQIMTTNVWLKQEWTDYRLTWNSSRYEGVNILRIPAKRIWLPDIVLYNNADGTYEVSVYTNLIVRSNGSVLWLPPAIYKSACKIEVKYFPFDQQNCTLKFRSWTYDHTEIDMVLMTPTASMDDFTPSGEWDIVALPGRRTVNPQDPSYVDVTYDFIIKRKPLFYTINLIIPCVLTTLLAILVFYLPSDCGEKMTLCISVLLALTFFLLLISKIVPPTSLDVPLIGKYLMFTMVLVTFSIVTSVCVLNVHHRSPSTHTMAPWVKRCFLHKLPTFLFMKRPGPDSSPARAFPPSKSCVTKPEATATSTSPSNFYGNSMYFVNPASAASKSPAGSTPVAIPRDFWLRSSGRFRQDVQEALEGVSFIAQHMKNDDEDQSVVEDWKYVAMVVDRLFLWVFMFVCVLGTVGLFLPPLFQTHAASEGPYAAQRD
Sequence (P32297 whole entry): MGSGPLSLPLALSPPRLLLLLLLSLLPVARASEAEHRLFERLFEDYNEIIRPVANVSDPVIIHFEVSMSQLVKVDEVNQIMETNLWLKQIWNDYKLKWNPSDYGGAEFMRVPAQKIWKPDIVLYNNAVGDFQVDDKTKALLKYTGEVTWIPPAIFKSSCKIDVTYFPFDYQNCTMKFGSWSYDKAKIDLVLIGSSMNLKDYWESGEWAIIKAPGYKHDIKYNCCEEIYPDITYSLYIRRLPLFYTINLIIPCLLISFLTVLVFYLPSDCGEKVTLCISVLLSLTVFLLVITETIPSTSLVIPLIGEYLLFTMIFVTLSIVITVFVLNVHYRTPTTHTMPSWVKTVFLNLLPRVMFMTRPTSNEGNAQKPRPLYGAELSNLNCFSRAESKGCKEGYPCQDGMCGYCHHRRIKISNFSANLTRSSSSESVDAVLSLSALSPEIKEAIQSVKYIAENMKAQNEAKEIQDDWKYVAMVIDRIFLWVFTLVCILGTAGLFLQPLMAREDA
assay_info: Displacement of [3H]Epibatidine from human alpha3beta4 nACHR expressed in CHO cell membranes after 2 hrs by liquid scintillation counting analysis
Items are presented alongside their recorded Ki.
result_type: Ki (nM)

molecule	measured_value
COC(=O)N1CC2CNCC2C1 (mixture of isomers)	14000
C[C@@H]1C[C@H]1C(=O)N1CC2CNCC2C1 (mixture of isomers)	360
O=C([C@H]1C[C@H]1F)N1CC2CNCC2C1 (mixture of isomers)	380
C[C@H]1C[C@H]1C(=O)N1CC2CNCC2C1 (mixture of isomers)	2000
C[C@H]1C[C@@H]1C(=O)N1CC2CNCC2C1 (mixture of isomers)	13000
CCC(=O)N1CC2CNCC(C2)C1 (mixture of isomers)	20000
C[C@@H]1C[C@@H]1C(=O)N1CC2CNCC(C2)C1 (mixture of isomers)	10

* * *

experimental_target: Neuronal acetylcholine receptor; alpha3/beta4 (Homo sapiens, UniProt P30926+P32297)
assay_info: Displacement of [3H]Epibatidine from human alpha3beta4 nACHR expressed in CHO cell membranes after 2 hrs by liquid scintillation counting analysis
pKi: −log10 of the molar value.
Kind request: treat 6 as inclusive, so pKi at 6 or higher is yes, anything lower is no.

molecule	experimental_target	group_label
C[C@H]1C[C@H]1C(=O)N1CC2CNCC(C2)C1 (mixture of isomers)	Neuronal acetylcholine receptor; alpha3/beta4 (Homo sapiens, UniProt P30926+P32297)	yes
CCCNC(=O)[C@H]1C[C@@H]2CNC[C@@H](C2)C1	Neuronal acetylcholine receptor; alpha3/beta4 (Homo sapiens, UniProt P30926+P32297)	no
O=C([C@H]1C[C@H]1F)N1CC2CNCC(C2)C1 (mixture of isomers)	Neuronal acetylcholine receptor; alpha3/beta4 (Homo sapiens, UniProt P30926+P32297)	yes
O=C(C1CC1)[C@H]1C[C@@H]2CNC[C@@H](C2)C1	Neuronal acetylcholine receptor; alpha3/beta4 (Homo sapiens, UniProt P30926+P32297)	no
CC(=O)N1CC2CNCC(C2)C1 (mixture of isomers)	Neuronal acetylcholine receptor; alpha3/beta4 (Homo sapiens, UniProt P30926+P32297)	no
COC(=O)[C@H]1C[C@H]2CNC[C@H]2C1 (mixture of isomers)	Neuronal acetylcholine receptor; alpha3/beta4 (Homo sapiens, UniProt P30926+P32297)	yes
O=C(C1CC1)[C@H]1C[C@H]2CNC[C@H]2C1 (mixture of isomers)	Neuronal acetylcholine receptor; alpha3/beta4 (Homo sapiens, UniProt P30926+P32297)	yes
C[C@@H]1C[C@H]1C(=O)N1CC2CNCC(C2)C1 (mixture of isomers)	Neuronal acetylcholine receptor; alpha3/beta4 (Homo sapiens, UniProt P30926+P32297)	yes
CCC(=O)N1CC2CNCC2C1 (mixture of isomers)	Neuronal acetylcholine receptor; alpha3/beta4 (Homo sapiens, UniProt P30926+P32297)	no
CC(=O)N1CC2CNCC2C1 (mixture of isomers)	Neuronal acetylcholine receptor; alpha3/beta4 (Homo sapiens, UniProt P30926+P32297)	no
O=C(c1ccco1)[C@H]1C[C@H]2CNC[C@H]2C1 (mixture of isomers)	Neuronal acetylcholine receptor; alpha3/beta4 (Homo sapiens, UniProt P30926+P32297)	no
O=C([C@@H]1C[C@H]1F)N1CC2CNCC(C2)C1 (mixture of isomers)	Neuronal acetylcholine receptor; alpha3/beta4 (Homo sapiens, UniProt P30926+P32297)	yes
O=C([C@H]1C[C@@H]1F)N1CC2CNCC(C2)C1 (mixture of isomers)	Neuronal acetylcholine receptor; alpha3/beta4 (Homo sapiens, UniProt P30926+P32297)	yes
C[C@H]1C[C@@H]1C(=O)N1CC2CNCC(C2)C1 (mixture of isomers)	Neuronal acetylcholine receptor; alpha3/beta4 (Homo sapiens, UniProt P30926+P32297)	yes
CC(C)NC(=O)[C@H]1C[C@@H]2CNC[C@@H](C2)C1	Neuronal acetylcholine receptor; alpha3/beta4 (Homo sapiens, UniProt P30926+P32297)	no
C[C@@H]1C[C@@H]1C(=O)N1CC2CNCC2C1 (mixture of isomers)	Neuronal acetylcholine receptor; alpha3/beta4 (Homo sapiens, UniProt P30926+P32297)	yes
O=C([C@@H]1C[C@H]1F)N1CC2CNCC2C1 (mixture of isomers)	Neuronal acetylcholine receptor; alpha3/beta4 (Homo sapiens, UniProt P30926+P32297)	yes

Reference source for all entries: ChEMBL document CHEMBL2407030
